- Assayed System: T1, recombinant OX40 protein with a His tag (Cat: 10481-H08H, Sino Biological) (UniProt P43489 29-216)
- T1 construct: Bought protein; also called OX40-His (bought); not shown: His tag
- T1 sequence (looked up): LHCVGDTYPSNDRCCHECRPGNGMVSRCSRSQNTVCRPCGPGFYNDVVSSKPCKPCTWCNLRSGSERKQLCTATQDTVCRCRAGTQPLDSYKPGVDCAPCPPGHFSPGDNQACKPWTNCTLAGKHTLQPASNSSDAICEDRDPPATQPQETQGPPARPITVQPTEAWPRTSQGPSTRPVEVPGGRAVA
- Method Summary: Biacore (SPR); antigen not named on the sheet, OX40-His as in Example 4

Binder | kon [M⁻¹ s⁻¹]
445-3(A61N-K28R)-3 (antibody, V domains shown) VH: QVQLVQSGAEVKKPGSSVKVSCKASGYRFTSYIIHWVRQAPGQGLEWMGYINPYNEGTRYNQKFQGRVTLTADKSTSTAYMELSSLRSEDTAVYYCARGYYGSSYAMDYWGQGTTVTVSS VL: DIQMTQSPSSLSASVGDRVTITCRASQGISNYLNWYQQKPDGAIKLLIYDASTLYSGVPSRFSGSGSGTDFTLTISSLQPEDFATYYCQQYSKLPYTFGGGTKVEIK | 157000
445-2 with Y27G in the heavy chain and S24R in the light chain (antibody, human IgG1, V domains shown) VH: QVQLVQSGAEVKKPGSSVKVSCKASGGKFTSYIIHWVRQAPGQGLEWMGYINPYNEGTRYAQKFQGRVTLTADKSTSTAYMELSSLRSEDTAVYYCARGYYGSSYAMDYWGQGTTVTVSS VL: DIQMTQSPSSLSASVGDRVTITCRASQGISNYLNWYQQKPGKAIKLLIYDASTLYSGVPSRFSGSGSGTDFTLTISSLQPEDFATYYCQQYSKLPYTFGGGTKVEIK | 62500
445-3(Q62E)-3(S24R) (antibody, V domains shown) VH: QVQLVQSGAEVKKPGSSVKVSCKASGYKFTSYIIHWVRQAPGQGLEWMGYINPYNEGTRYAEKFQGRVTLTADKSTSTAYMELSSLRSEDTAVYYCARGYYGSSYAMDYWGQGTTVTVSS VL: DIQMTQSPSSLSASVGDRVTITCRASQGISNYLNWYQQKPGKAIKLLIYDASTLYSGVPSRFSGSGSGTDFTLTISSLQPEDFATYYCQQYSKLPYTFGGGTKVEIK | 194000
445-3(Q62E/Q65K)-3(S24R) (antibody, V domains shown) VH: QVQLVQSGAEVKKPGSSVKVSCKASGYKFTSYIIHWVRQAPGQGLEWMGYINPYNEGTRYAEKFKGRVTLTADKSTSTAYMELSSLRSEDTAVYYCARGYYGSSYAMDYWGQGTTVTVSS VL: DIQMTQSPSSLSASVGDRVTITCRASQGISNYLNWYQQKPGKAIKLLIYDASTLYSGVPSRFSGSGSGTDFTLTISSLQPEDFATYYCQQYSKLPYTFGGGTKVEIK | 187000
445-3(A61N-K63R)-3 (antibody, V domains shown) VH: QVQLVQSGAEVKKPGSSVKVSCKASGYKFTSYIIHWVRQAPGQGLEWMGYINPYNEGTRYNQRFQGRVTLTADKSTSTAYMELSSLRSEDTAVYYCARGYYGSSYAMDYWGQGTTVTVSS VL: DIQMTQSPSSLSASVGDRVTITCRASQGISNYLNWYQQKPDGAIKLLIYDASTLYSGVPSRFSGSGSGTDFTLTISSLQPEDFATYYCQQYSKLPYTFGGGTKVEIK | 161000
445-2 with K28T in the heavy chain and S24R in the light chain (antibody, human IgG1, V domains shown) VH: QVQLVQSGAEVKKPGSSVKVSCKASGYTFTSYIIHWVRQAPGQGLEWMGYINPYNEGTRYAQKFQGRVTLTADKSTSTAYMELSSLRSEDTAVYYCARGYYGSSYAMDYWGQGTTVTVSS VL: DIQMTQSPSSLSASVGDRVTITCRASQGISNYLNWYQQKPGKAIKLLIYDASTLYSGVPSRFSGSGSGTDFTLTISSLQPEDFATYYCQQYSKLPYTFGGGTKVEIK | 444000
445-3(T30S)-3(S24R) (antibody, V domains shown) VH: QVQLVQSGAEVKKPGSSVKVSCKASGYKFSSYIIHWVRQAPGQGLEWMGYINPYNEGTRYAQKFQGRVTLTADKSTSTAYMELSSLRSEDTAVYYCARGYYGSSYAMDYWGQGTTVTVSS VL: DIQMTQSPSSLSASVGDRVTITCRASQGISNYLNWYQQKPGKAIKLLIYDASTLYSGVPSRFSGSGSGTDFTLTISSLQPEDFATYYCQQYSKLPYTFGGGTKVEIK | 291000
445-3-3(G41D-K42G-S24R-K93R) (antibody, V domains shown) VH: QVQLVQSGAEVKKPGSSVKVSCKASGYKFTSYIIHWVRQAPGQGLEWMGYINPYNEGTRYNQKFQGRVTLTADKSTSTAYMELSSLRSEDTAVYYCARGYYGSSYAMDYWGQGTTVTVSS VL: DIQMTQSPSSLSASVGDRVTITCRASQGISNYLNWYQQKPDGAIKLLIYDASTLYSGVPSRFSGSGSGTDFTLTISSLQPEDFATYYCQQYSRLPYTFGGGTKVEIK | 212000
